pKi: −log10 of the molar value.
Several publications report pKi on UniProt O43570; those values are gathered here.
Sequence (O43570 whole entry): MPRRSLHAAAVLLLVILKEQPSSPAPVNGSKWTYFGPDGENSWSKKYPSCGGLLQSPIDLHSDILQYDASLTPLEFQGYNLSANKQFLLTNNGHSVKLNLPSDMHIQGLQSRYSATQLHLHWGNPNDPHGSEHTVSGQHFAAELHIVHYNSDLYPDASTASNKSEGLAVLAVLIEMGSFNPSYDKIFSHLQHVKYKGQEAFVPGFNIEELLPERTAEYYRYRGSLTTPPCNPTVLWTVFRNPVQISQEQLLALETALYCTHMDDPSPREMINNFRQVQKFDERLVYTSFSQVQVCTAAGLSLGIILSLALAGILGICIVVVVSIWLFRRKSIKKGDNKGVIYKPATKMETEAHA
Tick Fulfilled if pKi is 8 or greater. Tick Not fulfilled if pKi is less than 8.

# structure-smiles-string, experimental-system, group
measured = [
    ("N#CCN1C(=O)c2ccccc2S1(=O)=O", "UniProt O43570", "Not fulfilled"),
    ("COC(=O)CCNS(=O)(=O)Oc1ccccc1O", "UniProt O43570", "Not fulfilled"),
    ("CC(=O)c1c(O)c2cc(Br)ccc2oc1=O", "UniProt O43570", "Fulfilled"),
    ("C/C(=N\\Nc1nc(-c2ccc(Cl)cc2)cs1)c1nnn(-c2ccc(S(=O)(=O)Nc3nccs3)cc2)c1C", "UniProt O43570", "Not fulfilled"),
    ("COC(=O)[C@@H](NS(=O)(=O)NCc1ccc(F)cc1)C(C)C", "UniProt O43570", "Fulfilled"),
    ("NS(=O)(=O)c1ccc(CCNCc2ccc3ccccc3c2)cc1", "UniProt O43570", "Not fulfilled"),
    ("COC(=O)[C@H](C)NS(=O)(=O)NC(=O)OC(C)(C)C", "UniProt O43570", "Not fulfilled"),
]
